Target: T1, HLA-DR6w19 (DRB1*1302) (human)
T1 chain 1: not shown
T1 chain 2: not shown
Assay Endpoint: binding affinity ratio (IC50 of standard peptide / IC50 of test peptide)

| Binder | Readout Number |
| --- | --- |
| IGPFMKAVCVEVEKT (modifications not checked) [… (Pf SSP2 227)] | 0.0003 |
| RHPFKIGSSDPADNA (modifications not checked) [… (Pf EXP 107)] | 0.0003 |
| ANQLVVILTDGIPDS (modifications not checked) [… (Pf SSP2 153)] | 0.007 |
| MKILSVFFLALFFII (modifications not checked) [… (Pf EXP 1)] | 0.0019 |
| LIDVHDLISDMIKKE (modifications not checked) [… (Pf EXP 47)] | 0.0004 |
